testedSystem: KRAS_G12D and cRAF (Homo sapiens, UniProt P01116, G12D)
runDescription: Inhibition of KRAS_G12D/cRAF binding (Cisbio binding kit, 665/615 ratio), Effect Embodiment B
conditionContext: read-out: GTP-KRAS-G12D:CRAF IC50
pIC50: −log10 of the molar value. Structures can show the parent of a compound that is named as a salt.
pIC50 listing for selected molecules.

molecule	pIC50
CO[C@@H]1C[C@@H](COc2nc(N3CC4CCC(C3)N4)c3cc(Cl)c(-c4cc(O)cc5ccccc45)c(F)c3n2)N(C)C1 (single isomer, unassigned) [Compound 166, dihydrochloride]	7.50
CN(C)CC1(COc2nc(N3CC4CCC(C3)N4)c3cc(Cl)c(-c4cc(O)cc5ccccc45)c(F)c3n2)CC1 (single isomer, unassigned)	7.74
C[C@H]1C[C@@H](COc2nc(N3CC4CCC(C3)N4)c3cnc(-c4cc(O)cc5ccccc45)c(F)c3n2)N(C)C1	7.73
CN(C)CCOc1nc(N2CC3CCC(C2)N3)c2cc(Cl)c(-c3cc(O)cc4ccccc34)c(F)c2n1 (single isomer, unassigned) [Compound 48a]	6.89
C[C@@H](COc1nc(N2CC3CCC(C2)N3)c2cc(Cl)c(-c3cc(O)cc4ccccc34)c(F)c2n1)CN1C2CC3CC1CC(C2)O3 (single isomer, unassigned)	7.55
Oc1cc(-c2c(Cl)cc3c(N4CC5CCC(C4)N5)nc(OCC4CCC5COCCN5C4)nc3c2F)c2ccccc2c1 (single isomer, unassigned) [Compound 264b]	7.00

====

Measured IC50 of individual entries
testedSystem: KRAS-G12D and SOS1 (Homo sapiens, UniProt P01116, G12D)
Sequence (P01116 1-188 isoform P01116-2 G12D): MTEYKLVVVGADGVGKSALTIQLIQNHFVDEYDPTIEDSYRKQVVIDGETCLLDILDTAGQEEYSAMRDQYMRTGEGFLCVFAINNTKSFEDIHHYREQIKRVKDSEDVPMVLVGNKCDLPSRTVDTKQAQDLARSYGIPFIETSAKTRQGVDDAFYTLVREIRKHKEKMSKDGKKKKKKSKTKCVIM
runDescription: Inhibition of KRAS-G12D/SOS1 binding (Cisbio binding kit, 665/615 ratio), Effect Embodiment A
conditionContext: read-out: GTP-KRAS-G12D:SOS1 IC50
Procedure: Similarly, the first dilution point of the compound to be tested was its storage solution, and the solution was 3-fold diluted, with 11+0 points of dilution. Echo was used to transfer 0.2 μL gradient diluted solution of the compounds into a 384-well plate, with 2 duplicated wells for each compound, and the final concentration of DMSO was 1%. The solution was centrifuged for 1 min at 1000 rpm/min. IC50 of the compounds was fitted by Graphpad Prism 8 nonlinear regression equation: […]
Counter-ions that a name gives are not always drawn.

compound	unitsLabel	IC50
CCCN(C)CCOc1nc(N2C[C@H]3CC[C@@H](C2)N3)c2cc(Cl)c(-c3cc(O)cc4ccccc34)c(F)c2n1 (single isomer, unassigned) [Compound 126, dihydrochloride]	nM	134
CN(C)CCCNc1nc(N2C[C@H]3CC[C@@H](C2)N3)c2cc(Cl)c(-c3cc(O)cc4ccccc34)c(F)c2n1 (single isomer, unassigned) [Compound 55a]	nM	1120
CN(C)C1CN(c2nc(N3C[C@@H]4C[C@H]3CN4)c3cc(Cl)c(-c4cc(O)cc5ccccc45)c(F)c3n2)C1 (single isomer, unassigned)	nM	248
CN(C)CCOc1nc(N2CC3CCC(C2)N3)c2cc(Cl)c(-c3cc(O)cc4ccccc34)c(F)c2n1 (single isomer, unassigned) [Compound 48a]	nM	23.8
C[C@@H](COc1nc(N2CC3CCC(C2)N3)c2cc(Cl)c(-c3cc(O)cc(Cl)c3C3CC3)c(F)c2n1)CN1C2CCC1COC2 (single isomer, unassigned)	nM	16.7

====

testedSystem: KRAS-G12D and SOS1 (Homo sapiens, UniProt P01116, G12D)
runDescription: Inhibition of KRAS-G12D/SOS1 binding (Cisbio binding kit, 665/615 ratio), Effect Embodiment A
conditionContext: read-out: GTP-KRAS-G12D:SOS1 IC50
pIC50: −log10 of the molar value. Counter-ions that a name gives are not always drawn.
Values of pIC50 greater than or equal to 6 map to 1 (yes); values below map to 0 (no).

compound	cat
CO[C@H](COc1nc(N2CC3CCC(C2)N3)c2cc(Cl)c(-c3cc(O)cc4ccccc34)c(F)c2n1)CN1C2CCC1COC2 (single isomer, unassigned)	1 (yes)
CN(C)C1CN(c2nc(NCC(=N)N)c3cc(Cl)c(-c4cc(O)cc5ccccc45)c(F)c3n2)C1 (single isomer, unassigned) [Compound 76, diformate]	0 (no)
CC1OCCN(CCCOc2nc(N3CC4CCC(C3)N4)c3cc(Cl)c(-c4cc(O)cc5ccccc45)c(F)c3n2)C1C (single isomer, unassigned) [Compound 265d]	1 (yes)
C#Cc1cccc2cc(O)cc(-c3c(F)cc4c(N5CC6CCC(C5)N6)nc(OCCCN5C6CCC5COC6)nc4c3F)c12 (single isomer, unassigned) [Compound 273a]	1 (yes)
CN1CCOC[C@H]1COc1nc(N2CC3CCC(C2)N3)c2cc(Cl)c(-c3cc(O)cc4ccccc34)c(F)c2n1 (single isomer, unassigned) [Compound 122, dihydrochloride]	1 (yes)
CN(C)CCCn1c(=O)nc(N2CC3CCC(C2)N3)c2cc(Cl)c(-c3cc(O)cc4ccccc34)c(F)c21 (single isomer, unassigned) [Compound 74a]	0 (no)
NCCCOc1nc(N2CC3CCC(C2)N3)c2cc(Cl)c(-c3cc(O)cc4ccccc34)c(F)c2n1 (single isomer, unassigned) [Compound 94, dihydrochloride]	1 (yes)
CN(C)C1CN(c2nc(N3CC4(CCNCC4)C3)c3cc(Cl)c(-c4cc(O)cc5ccccc45)c(F)c3n2)C1 (single isomer, unassigned) [Compound 10b]	0 (no)
CO[C@@H]1C[C@@H](COc2nc(N3CC4CCC(C3)N4)c3cnc(-c4cc(O)cc5ccccc45)c(F)c3n2)N(C)C1	1 (yes)
CN(C)C1CN(c2nc(N3[C@@H]4CC[C@H]3CNC4)c3cc(Cl)c(-c4cc(O)cc5ccccc45)c(F)c3n2)C1 (single isomer, unassigned)	1 (yes)
CCc1cccc2cc(O)cc(-c3c(F)cc4c(N5CC6CCC(C5)N6)nc(OCCCN5CCOC[C@H]5C)nc4c3F)c12 (single isomer, unassigned) [Compound 282a, dihydrochloride]	1 (yes)
CN(C)C1CN(c2nc(C3(C(N)=O)CN(C(=N)N)C3)c3cc(Cl)c(-c4cc(O)cc5ccccc45)c(F)c3n2)C1 (single isomer, unassigned) [Compound 145, ditrifluoroacetate]	0 (no)
Oc1cc(Cl)c(C2CC2)c(-c2c(Cl)cc3c(N4C[C@H]5CC[C@@H](C4)N5)nc(OCCCN4C5CCC4COC5)nc3c2F)c1 (single isomer, unassigned) [Compound 197a]	1 (yes)
Oc1cc(-c2c(Cl)cc3c(N4C[C@H]5CC[C@@H](C4)N5)nc(OCCCN4C[C@@H]5C[C@H]4CO5)nc3c2F)c2ccccc2c1 (single isomer, unassigned) [Compound 165, dihydrochloride]	1 (yes)
C[C@@H](COc1nc(N2CC3CCC(C2)N3)c2cc(Cl)c(-c3cc(O)cc4ccccc34)c(F)c2n1)CN1CCO[C@@H](C)C1 (single isomer, unassigned)	1 (yes)
CN(C)C1CN(c2nc(N3C[C@H]4CNC[C@H]4C3)c3cc(Cl)c(-c4cc(O)cc5ccccc45)c(F)c3n2)C1 (single isomer, unassigned) [Compound 13a]	0 (no)
Oc1cc(-c2c(Cl)cc3c(N4CC5CCC(C4)N5)nc(OCCCN4CCC4)nc3c2F)c2ccccc2c1 (single isomer, unassigned) [Compound 59b]	0 (no)
CN(C)C1CCC(Oc2nc(N3CC4CCC(C3)N4)c3cc(Cl)c(-c4cc(O)cc5ccccc45)c(F)c3n2)C1 (single isomer, unassigned) [Compound 70b, dihydrochloride]	1 (yes)
CN1CCC[C@H]1COc1nc(N2CCN(C(=O)CN)[C@@H](CC#N)C2)c2cc(Cl)c(-c3cc(O)cc4ccccc34)c(F)c2n1 (single isomer, unassigned)	1 (yes)

====

pIC50: −log10 of the molar value. Structures can show the parent of a compound that is named as a salt.
What follows is a record of pIC50 for KRAS_WT and SOS1 (Homo sapiens, UniProt P01116).

molecule	pIC50
Oc1cc(Cl)c(C2CC2)c(-c2c(Cl)cc3c(N4CC5CCC(C4)N5)nc(OC[C@@]45CCCN4C[C@H](F)C5)nc3c2F)c1 (single isomer, unassigned) [Compound 198a]	7.63
CN(C)C(=O)OCC1CCC2(COc3nc(N4CC5CCC(C4)N5)c4cc(Cl)c(-c5cc(O)cc6ccccc56)c(F)c4n3)CCCN12 (single isomer, unassigned) [Compound 232a]	7.99
CC(C)CN(C)CCCOc1nc(N2C[C@H]3CC[C@@H](C2)N3)c2cc(Cl)c(-c3cc(O)cc4ccccc34)c(F)c2n1 (single isomer, unassigned) [Compound 115, dihydrochloride]	5.38
CC1OCCN(CCCOc2nc(N3CC4CCC(C3)N4)c3cc(Cl)c(-c4cc(O)cc5ccccc45)c(F)c3n2)C1C (single isomer, unassigned) [Compound 265d]	5.31
C[C@@H]1CN(CCCOc2nc(N3CC4CCC(C3)N4)c3cc(Cl)c(-c4cc(O)cc5ccccc45)c(F)c3n2)C[C@H](C)O1 (single isomer, unassigned) [Compound 125, hydrochloride]	5.77
Oc1cc(-c2c(Cl)cc3c(N4CC5CCC(C4)N5)nc(OCC4CCC5COCCN5C4)nc3c2F)c2ccccc2c1 (single isomer, unassigned) [Compound 264a]	6.47
CN(C)C1CN(c2nc(N3CCNCC34CC4)c3cc(Cl)c(-c4cc(O)cc5ccccc45)c(F)c3n2)C1 (single isomer, unassigned) [Compound 19a]	5.03
CC(C)(COc1nc(N2CC3CCC(C2)N3)c2cc(Cl)c(-c3cc(O)cc4ccccc34)c(F)c2n1)CN1CCCC1 (single isomer, unassigned) [Compound 102, dihydrochloride]	5.96
C[C@H]1COCCN1CCCOc1nc(N2C[C@H]3CC[C@@H](C2)N3)c2cc(Cl)c(-c3cc(O)cc4ccccc34)c(F)c2n1 (single isomer, unassigned) [Compound 174, diformate]	5.74
C[C@@H]1CCCN1CCCOc1nc(N2CC3CCC(C2)N3)c2cc(Cl)c(-c3cc(O)cc4ccccc34)c(F)c2n1 (single isomer, unassigned) [Compound 108a, dihydrochloride]	5.64
CC(COc1nc(N2CC3CCC(C2)N3)c2cc(Cl)c(-c3cc(O)cc4ccccc34)c(F)c2n1)CN1C2CCC1COC2 (single isomer, unassigned) [Compound 178b]	5.98
Oc1cc(Cl)c(C2CC2)c(-c2c(Cl)cc3c(N4CC5CCC(C4)N5)nc(OC[C@@]45CCCN4C[C@H](F)C5)nc3c2F)c1 (single isomer, unassigned) [Compound 198b]	6.98
C=CCN1CCC[C@H]1COc1nc(N2CC3CCC(C2)N3)c2cc(F)c(-c3cc(O)cc4ccc(F)c(CC)c34)c(F)c2n1 (single isomer, unassigned) [Compound 287a, dihydrochloride]	7.54
CN(C)CCCOc1nc(N2C[C@H]3CC[C@@H](C2)N3)c2cnc(-c3cc(O)cc4ccccc34)c(F)c2n1	5.81
Oc1cc(-c2c(Cl)cc3c(N4CC5CCC(C4)N5)nc(OCC(F)CN4C5CCC4COC5)nc3c2F)c2ccccc2c1 (single isomer, unassigned) [Compound 179b]	5.27
CN(C)C1CN(c2nc(N3[C@@H]4CC[C@H]3CNC4)c3cc(Cl)c(-c4cc(O)cc5ccccc45)c(F)c3n2)C1 (single isomer, unassigned)	6.53
Cc1cc2c(N3CC4CCC(C3)N4)nc(OCCCN(C)C)nc2c(F)c1-c1cc(O)cc2ccccc12 (single isomer, unassigned) [Compound 149a, hydrochloride]	6.07
CN(C)CCCCCCOc1nc(N2C[C@H]3CC[C@@H](C2)N3)c2cc(Cl)c(-c3cc(O)cc4ccccc34)c(F)c2n1 (single isomer, unassigned) [Compound 68, dihydrochloride]	4.78
Oc1cc(-c2c(Cl)cc3c(N4CC5CCC(C4)N5)nc(OCCCN4CC5(COC5)C4)nc3c2F)c2ccccc2c1 (single isomer, unassigned)	5.83
CC(COc1nc(N2CC3CCC(C2)N3)c2cc(Cl)c(-c3cc(O)cc4ccccc34)c(F)c2n1)CN1C2CCC1COC2 (single isomer, unassigned) [Compound 178a]	6.08
CN1CCC[C@H]1COc1nc(N2C[C@H]3CC[C@@H](C2)N3)c2ccc(-c3cc(O)cc4ccccc34)c(F)c2n1	6.74
